Assay procedure: Population PK model of evobrutinib plasma concentration-time data
Condition context: human, in vivo, po
Recorded metric: Vd/F (L)

[[record]]
smiles_code = "C=CC(=O)N1CCC(CNc2ncnc(N)c2-c2ccc(Oc3ccccc3)cc2)CC1"
number = 61.1

